- Tested on: PC-3 prostate
- procedure_details: NCI tumour cell line growth inhibition, 48 h
Where a SMILES comes first, the peptide text is derived from it. [ ]: non-standard residue; d: D form. β3hI = CC[CH](C)[CH](N)CC(=O)O
If the reported TGI equals or exceeds 40 µM, assign True. If not, assign False.

Task item: hey, is TGI for this one >= 40 µM? "COc1ccc(/C(C)=N/OC(=O)c2c(-c3ccccc3Cl)noc2C)cc1CN1CCOCC1"
Reply: True

Task item: hey, is TGI for this one >= 40 µM? "N=c1ccc2c(c1)[nH]c1c3ccccc3[nH]c3cccc2c31"
Reply: False

Task item: hey, is TGI for this one >= 40 µM? "COc1ccc2c(c1)CC[C@@H]1[C@@H]2CC[C@]2(C)C(c3ccco3)=C(C=O)C[C@@H]12"
Reply: False

Task item: hey, is TGI for this one >= 40 µM? CCC(C)C(CC(=O)N1CCCC1C(=O)NC(C(=O)NC(C(=O)NCC(=O)NC(CC(N)=O)C(=O)NC(C(=O)NC(C(=O)NC(CCCCN)C(N)=O)C(C)CC)C(C)CC)C(C)C)C(C)CC)NC(=O)C(N)C(C)CC (stereo not drawn) (H-I[β3hI]PIVGNIIK-NH2; configuration not given here)
Reply: True

Task item: hey, is TGI for this one >= 40 µM? "O=c1[nH]nc(Cc2ccc(Cl)cc2)n1/N=C\CC/C=N\n1c(Cc2ccc(Cl)cc2)n[nH]c1=O"
Reply: True

---

- System: SW-620 colon
- procedure_details: NCI tumour cell line growth inhibition, 48 h
measurement_label: TGI

>  <compound>
CC(C)(C)C(=O)C1CC(=O)c2ccccc2C1=O (stereo not drawn)

>  <measurement_label>
TGI

>  <result>
> 100 µM

$$$$
>  <compound>
CCCN(CCC)c1ccc(/C=N/NC(=O)c2cccnc2)c(Cl)c1

>  <measurement_label>
TGI

>  <result>
28.6 µM

$$$$
>  <compound>
O=C1OC(O)C(Oc2ccc(Cl)cc2)=C1Cl (stereo not drawn)

>  <measurement_label>
TGI

>  <result>
> 100 µM

$$$$
>  <compound>
O=C(O)CC/C(=N\Nc1nsc2ccccc12)c1ccc(Cl)cc1

>  <measurement_label>
TGI

>  <result>
> 87.8 µM

$$$$
>  <compound>
C=C1C(=O)O[C@H]2[C@H]1CC/C(COC(=O)NCc1c[nH]c3ccc(Cl)cc13)=C\CC[C@@]1(C)O[C@@H]21

>  <measurement_label>
TGI

>  <result>
2.2 µM

$$$$

Task item: For the compound OC1CN2CCS[C@H]2C(O)C1O (stereo partly drawn) , what TGI is on record?
Reply: > 100 µM

Task item: For the compound "CCCCn1c2c(n(CCCC)c1=S)-c1c(n(CCCC)c(=S)n1CCCC)SSSS2" , what TGI is on record?
Reply: 3.8 µM

Task item: For the compound "C=C1c2nc3ccccc3n2C=C(c2ccccc2)N1c1ccccc1" , what TGI is on record?
Reply: > 100 µM

Task item: For the compound "CN(C)c1nc(NN)c2c(-c3ccccc3)c(-c3ccccc3)oc2n1" , what TGI is on record?
Reply: > 100 µM

Task item: For the compound "N/N=C1/CCCc2nonc21" , what TGI is on record?
Reply: > 100 µM

Task item: For the compound "COC(=O)CCC/C=C\C[C@H]1C=CC(=O)/C1=C/C[C@@H](O)C/C=C\CC(F)(F)F" , what TGI is on record?
Reply: 12.4 µM

Task item: For the compound "CC1=C(C(=O)NCc2ccccc2)C(c2ccccc2[N+](=O)[O-])C(C(=O)NCc2ccccc2)=C(C)N1" , what TGI is on record?
Reply: 28.1 µM

Task item: For the compound Cc1ccccc1C(C#N)C(=O)C(=O)Nc1cccc(Cl)c1 (stereo not drawn) , what TGI is on record?
Reply: 31.6 µM

Task item: For the compound "CCOC(=O)c1[nH]c2ccccc2c1C(=O)C[C@H](NC(=O)C(F)(F)F)C(=O)OC" , what TGI is on record?
Reply: > 100 µM

Task item: For the compound "CN(C1=NCCO1)c1cccc2c1CCCC2" , what TGI is on record?
Reply: > 10 µM

Task item: For the compound "COc1ccc2nc3ccccc3c(NCCCCCCN(C)CCCl)c2c1" , what TGI is on record?
Reply: 1.52 µM

---

Recorded TGI for the following compounds
- Test system: HCT-116 colon
- procedure_details: NCI tumour cell line growth inhibition, 48 h

Example cases with answers are listed next.
>  <compound>
COc1ccc(NC(=O)c2sc3nc(C)c(C(O)c4ccccc4)cc3c2N)cc1 (stereo not given)

>  <TGI>
> 100 µM

$$$$
>  <compound>
NCc1nnn(Cc2ccccc2)c1N

>  <TGI>
> 100 µM

$$$$
>  <compound>
O=C(COc1ccccc1)NS(=O)(=O)c1ccccc1

>  <TGI>
> 100 µM

$$$$
>  <compound>
COC(=O)[C@]1(C)CCC[C@@]2(C)C1CCC1=CC3(C(C)C)CCC12OO3 (stereo not given in full)

>  <TGI>
> 100 µM

$$$$
>  <compound>
COC(=O)C1=C(CO)C2C=CC1C2 (stereo not given)

>  <TGI>
> 100 µM

$$$$

Task item: Requested read-out TGI, target or system HCT-116 colon, entry "COc1ccc(O)c(C=NCCCN=Cc2cc(OC)ccc2O)c1"
Reply: > 100 µM

Task item: Requested read-out TGI, target or system HCT-116 colon, entry "C[C@H]1[C@H](C)CC[C@]2(C(=O)O)CC[C@]3(C)C(=CC[C@@H]4[C@@]5(C)C/C(=C/c6ccco6)C(=O)C(C)(C)[C@@H]5CC[C@]43C)[C@H]12"
Reply: 11.7 µM

Task item: Requested read-out TGI, target or system HCT-116 colon, entry "O=C1C=C(NCCc2cc(Br)c(O)c(Br)c2)C(=O)c2ncccc21"
Reply: 11.8 µM

Task item: Requested read-out TGI, target or system HCT-116 colon, entry COc1ccc(N2C(=O)C3c4[nH]c5cccc(C)c5c4C4CCC(C(C)(C)C)CC4C3C2=O)cc1 (stereo not given)
Reply: > 10 µM

Task item: Requested read-out TGI, target or system HCT-116 colon, entry "Cc1ccc(C)c(-c2csc(Nc3ccc(C)c(C)c3)n2)c1"
Reply: > 100 µM

---

- System: SK-OV-3 ovarian
- procedure_details: NCI tumour cell line growth inhibition, 48 h
measurement_label: TGI

Example cases with answers are listed next.
>  <compound>
COc1cc(-n2cc(-c3ccc(Cl)cc3)[nH]c2=O)cc(OC)c1OC

>  <measurement_label>
TGI

>  <result>
93 µM

$$$$
>  <compound>
CCOC(=O)C1=c2[nH]c3cccc4cccc(c43)n2C=C(C(C)=O)C1CC(C)=O (stereo unspecified)

>  <measurement_label>
TGI

>  <result>
> 100 µM

$$$$
>  <compound>
Oc1c(C2=N[C@H]3CCCC[C@@H]3N2)ccc2ccccc12

>  <measurement_label>
TGI

>  <result>
> 100 µM

$$$$
>  <compound>
O=C(Cc1ccc(Cl)c(Cl)c1)N(CCc1ccc(Cl)c(Cl)c1)CCN1CCCC1

>  <measurement_label>
TGI

>  <result>
7.49 µM

$$$$
>  <compound>
COc1cccc(/C=C2\CCCCCC2=O)c1

>  <measurement_label>
TGI

>  <result>
> 100 µM

$$$$

Task item: For the compound "COc1ccc([C@H]2CC(=O)NCCCCN2)cc1" , what TGI is on record?
Reply: > 100 µM

Task item: For the compound "O=c1ccn2n1CCCCC2" , what TGI is on record?
Reply: > 100 µM

---

Recorded GI50 for the following molecules
- Test system: SNB-19 CNS
- procedure_details: NCI tumour cell line growth inhibition, 48 h

>  <chem_smiles>
CCn1cnc2c(Nc3cccc(Cl)c3)nc(N[C@@H]3CCCC[C@@H]3N)nc21

>  <subject_of_test>
SNB-19 CNS

>  <GI50>
2.07 µM

$$$$
>  <chem_smiles>
COc1ccc2c(c1)CC[C@@H]1[C@@H]2CC[C@]2(C)C(c3ccco3)=C(C=O)C[C@@H]12

>  <subject_of_test>
SNB-19 CNS

>  <GI50>
9.3 µM

$$$$
>  <chem_smiles>
COc1cc(-c2cc(-c3nc4ccc(Cl)cc4[nH]3)[nH]n2)cc(OC)c1OC

>  <subject_of_test>
SNB-19 CNS

>  <GI50>
7.25 µM

$$$$
>  <chem_smiles>
COc1ccc([N+](=O)[O-])c(S(=O)(=O)c2ccc(Cl)cc2)n1

>  <subject_of_test>
SNB-19 CNS

>  <GI50>
13 µM

$$$$
>  <chem_smiles>
CCCc1nc2c(C)cc(-c3nc4ccccc4n3C)cc2n1Cc1ccc(-c2ccccc2C(=O)O)cc1

>  <subject_of_test>
SNB-19 CNS

>  <GI50>
39.4 µM

$$$$

Task item: For the molecule "CC(=O)N=c1ccc2nc3c(cc(N)c4ccccc43)oc-2c1" , what GI50 is on record?
Reply: 1.71 µM

Task item: For the molecule "CCCCCCCC[N+](C)(CCCCCCCC)CCCCCCCC" , what GI50 is on record?
Reply: 0.398 µM
